Test: Metabolic stability in mouse liver microsomes assessed as half life
Format: ADME, Microsome
measured-parameter: half-life (min)
# number only, unit min dropped from output

>>> df
                               input_smiles  meas_value
0  C=C(C)[C@@H]1CCC(C)=C[C@H]1c1c(O)cc([Si](C)(C)CCCCCC)cc1O        17.1
1  CCCCCCC(C)(C)c1cc(OC)c([C@H]2C=C(CO)[C@H]3C[C@@H]2C3(C)C)c(OC)c1        7.84
2  C=C(C)[C@@H]1CCC(C)=C[C@H]1c1c(O)cc(CCCCC)cc1O        1.11

half-life reading for `CCCCCC[Si](C)(C)c1cc(OC)c([C@H]2C=C(CO)[C@H]3C[C@@H]2C3(C)C)c(OC)c1` : 31.5
